Attribution: patent US20130071921A1

Listed here: items and their measured log10(Kd).
Biological target: T1, Recombinant human Dkk-1 (R&D Systems cat no. 1096-DK/CF), 10xHis tag at the C terminal (human, UniProt O94907 32-266)
T1 construct: the actual N-terminus of the purified protein is marked in bold italic after residue 30, but the mark is an image lost in the text; also called rhuDkk-1; hDkk-1
T1 sequence: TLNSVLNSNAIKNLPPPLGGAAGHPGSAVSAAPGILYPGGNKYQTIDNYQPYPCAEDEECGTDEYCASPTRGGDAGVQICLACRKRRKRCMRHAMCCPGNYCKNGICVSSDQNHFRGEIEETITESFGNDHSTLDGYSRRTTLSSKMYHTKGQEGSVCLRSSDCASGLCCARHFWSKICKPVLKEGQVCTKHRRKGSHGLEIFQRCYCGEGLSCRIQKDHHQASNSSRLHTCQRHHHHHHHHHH
Experiment: theoretical: koff / estimated kon 1e6 1/Ms (SPR screening 37C)
QUANTITY_MEASURED: log10(Kd) (log10 of the value in nM)

binder="L2.4B10 (Fab, V domains shown, tested as Fab (E. coli lysate, screening mode); human kappa CL and IgG2 CH1 not included here) VH: EVQLVESGGGLVQPGGSLRLSCAASGFTFSSYAISWVRQAPGKGLEWVASVSGWYDTYYPDSVKGRFTISRDNAKNSLYLQMNSLRAEDTAVYYCATSLENYAFDYWGQGTTVTVSS VL: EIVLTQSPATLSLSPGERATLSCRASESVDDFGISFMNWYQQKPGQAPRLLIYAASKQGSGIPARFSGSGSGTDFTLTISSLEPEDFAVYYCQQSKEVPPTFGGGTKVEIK" quantity_measured=log10(Kd) reported=0.54
binder="L2.4G10 (Fab, V domains shown, tested as Fab (E. coli lysate, screening mode); human kappa CL and IgG2 CH1 not included here) VH: EVQLVESGGGLVQPGGSLRLSCAASGFTFSSYAISWVRQAPGKGLEWVASVSGWLDTYYPDSVKGRFTISRDNAKNSLYLQMNSLRAEDTAVYYCATSLRNYAFDYWGQGTTVTVSS VL: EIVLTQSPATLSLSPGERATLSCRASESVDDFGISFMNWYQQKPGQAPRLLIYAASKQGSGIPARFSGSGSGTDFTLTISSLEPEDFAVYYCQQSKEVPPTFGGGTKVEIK" quantity_measured=log10(Kd) reported=0.44
binder="L3.1D7 (Fab, V domains shown, tested as Fab (E. coli lysate, screening mode); human kappa CL and IgG2 CH1 not included here) VH: EVQLVESGGGLVQPGGSLRLSCAASGFTFSSYAISWVRQAPGKGLEWVASVSGWFRTYYPDSVKGRFTISRDNAKNSLYLQMNSLRAEDTAVYYCATSLRNYAFDYWGQGTTVTVSS VL: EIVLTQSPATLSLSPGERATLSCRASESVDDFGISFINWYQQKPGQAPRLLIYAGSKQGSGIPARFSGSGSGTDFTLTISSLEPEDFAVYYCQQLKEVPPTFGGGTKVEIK" quantity_measured=log10(Kd) reported=-0.79
binder="L2.4D11 (Fab, V domains shown, tested as Fab (E. coli lysate, screening mode); human kappa CL and IgG2 CH1 not included here) VH: EVQLVESGGGLVQPGGSLRLSCAASGFTFSSYAISWVRQAPGKGLEWVASVSGWMDTYYPDSVKGRFTISRDNAKNSLYLQMNSLRAEDTAVYYCATSLENYAFDYWGQGTTVTVSS VL: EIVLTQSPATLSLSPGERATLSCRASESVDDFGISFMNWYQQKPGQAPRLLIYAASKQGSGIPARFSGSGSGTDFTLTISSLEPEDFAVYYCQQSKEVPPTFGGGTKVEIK" quantity_measured=log10(Kd) reported=0.51
binder="L2.P4.E7 (Fab, V domains shown, tested as Fab (E. coli lysate, screening mode); human kappa CL and IgG2 CH1 not included here) VH: EVQLVESGGGLVQPGGSLRLSCAASGFTFSSYAISWVRQAPGKGLEWVASVSGWGDTYYPDSVKGRFTISRDNAKNSLYLQMNSLRAEDTAVYYCATSLRNYAFDYWGQGTTVTVSS VL: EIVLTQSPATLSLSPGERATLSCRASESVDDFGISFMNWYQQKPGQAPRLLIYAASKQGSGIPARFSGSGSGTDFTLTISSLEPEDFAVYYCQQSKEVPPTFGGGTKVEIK" quantity_measured=log10(Kd) reported=0.72
binder="L2.P4.B5 (Fab, V domains shown, tested as Fab (E. coli lysate, screening mode); human kappa CL and IgG2 CH1 not included here) VH: EVQLVESGGGLVQPGGSLRLSCAASGFTFSSYAISWVRQAPGKGLEWVASVSGWGDTYYPDSVKGRFTISRDNAKNSLYLQMNSLRAEDTAVYYCATSYENYAFDYWGQGTTVTVSS VL: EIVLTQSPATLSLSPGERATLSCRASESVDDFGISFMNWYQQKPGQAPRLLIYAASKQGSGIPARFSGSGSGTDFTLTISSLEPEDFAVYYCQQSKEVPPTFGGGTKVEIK" quantity_measured=log10(Kd) reported=0.73
binder="SL3.1F12 (Fab, V domains shown, tested as Fab (E. coli lysate, screening mode); human kappa CL and IgG2 CH1 not included here) VH: EVQLVESGGGLVQPGGSLRLSCAASGFTFSSYAISWVRQAPGKGLEWVASVSGGGRTYYPDSVKGRFTISRDNAKNSLYLQMNSLRAEDTAVYYCATSLENYAFDYWGQGTTVTVSS VL: EIVLTQSPATLSLSPGERATLSCRASESVDDFGISFMNWYQQKPGQAPRLLIYAASKQGSGIPARFSGSGSGTDFTLTISSLEPEDFAVYYCQQSKEVPPYFGGGTKVEIK" quantity_measured=log10(Kd) reported=0.74
